For each entry below, report its growth value.
test system: HCT-116 colon; experiment: NCI-60 one-dose screen, 48 h (100 = growth as untreated, 0 = no growth, -100 = all killed); settings: 10 µM unless noted
About 83,000 compounds went through this panel and 20% of them were active in at least one assay; those are over-represented in the sample as a whole. The source made the active and inactive calls. How the source made its calls: active means growth percent below 10; inactive means the rest.

compound=CC/C(=C(\c1ccc(O)cc1)c1ccc(OCCN(C)CCN(C)C(=O)CCC(=O)c2c(C)[nH]c(/C=C3\N=C(c4ccc[nH]4)C=C3OC)c2C)cc1)c1ccccc1 reading="65.2% (inactive)"
compound="COc1ccc(C2SCC(=O)N2NC(=O)c2ccc(NC(=O)c3ccccn3)cc2)cc1OC (configuration not stated)" reading="100% (inactive)"
compound=O=C(Cc1c(F)cccc1Cl)Nc1ccc(S(=O)(=O)Nc2ncccn2)cc1 reading="102% (inactive)"

Please give growth, item by item, for the list that follows.
1. C=CCc1cc(Cl)cc2c(OC(C)=O)c(C(C)=O)c(-c3ccccc3)nc12
2. Cc1ccc(C2=NN(c3ccc(S(=O)(=O)NC(=O)NCc4ccccc4)cc3)C(c3ccc(N(C)C)cc3)C2)c(C)c1 (configuration not stated)
3. COc1ccc(/C(=N/O)c2cc(OC)c(OC)c(OC)c2)c(OC)c1N
4. O=C(CCCn1c2c(sc3ccccc32)c(=O)n2nnc(-c3ccccc3)c12)NCCc1cnc[nH]1
5. CN(C)C1CCC(NC2=CC(=O)C=CC2=O)CC1 (configuration not stated)
6. CCCCCCCCCCn1cc[n+](C)c1
7. COc1ccc(C(=O)c2cc(OC)c(OC)c(OC)c2)cc1/C=C/C(=O)c1ccc(O)cc1

## Output
["105% (inactive)", "39.7% (inactive)", "20.6% (inactive)", "-100% (active)", "5.98% (active)", "17.6% (inactive)", "-23.2% (active)"]

Please give growth, item by item, for the list that follows.
1. CC(C)CCC[C@@H](C)[C@H]1CC[C@H]2[C@@H]3CC[C@H]4C/C(=N/O)CC[C@]4(C)[C@H]3CC[C@]12C
2. Cc1ccc(OCCn2c(C)nn(-c3ccc(Cl)cc3)c2=O)cc1
3. O=C(N/N=C/c1c(Cl)cccc1Cl)c1ccccc1Nc1ccnc(C(F)(F)F)c1
4. CC/C=C\C/C=C\C[C@H](O)C/C=C1/C(=O)C=C[C@H]1C/C=C\CCC(=O)OC
5. CN(C)c1ccc(C2CC(c3ccccc3)=NN2/C=C2\SC(=O)NC2=O)cc1 (configuration not stated)
6. O=C1NC(Cc2c[nH]c3ccccc23)C(=O)N1Cc1ccc(Cl)cc1 (configuration not stated)
7. CC(Cc1nnc(SCC(=O)Nc2ccc(I)cc2)n1N)c1ccccc1 (configuration not stated)
8. COc1ccc(NC(=O)CSc2nc3ccccc3c(=O)n2Cc2cc(OC)c(OC)c(OC)c2)cc1

## Output
109% (inactive)
95.5% (inactive)
64.9% (inactive)
-41.6% [8.25 µM] (active)
85.9% (inactive)
93.4% (inactive)
68.6% (inactive)
89.5% (inactive)
